Cited source for all entries: patent US9260439B2

- STUDY TARGET: truncated PI3Kα (p110α/iSH2 p85α) (Homo sapiens (Human))
- Sequence (P42336 whole entry, the tested form may be a part): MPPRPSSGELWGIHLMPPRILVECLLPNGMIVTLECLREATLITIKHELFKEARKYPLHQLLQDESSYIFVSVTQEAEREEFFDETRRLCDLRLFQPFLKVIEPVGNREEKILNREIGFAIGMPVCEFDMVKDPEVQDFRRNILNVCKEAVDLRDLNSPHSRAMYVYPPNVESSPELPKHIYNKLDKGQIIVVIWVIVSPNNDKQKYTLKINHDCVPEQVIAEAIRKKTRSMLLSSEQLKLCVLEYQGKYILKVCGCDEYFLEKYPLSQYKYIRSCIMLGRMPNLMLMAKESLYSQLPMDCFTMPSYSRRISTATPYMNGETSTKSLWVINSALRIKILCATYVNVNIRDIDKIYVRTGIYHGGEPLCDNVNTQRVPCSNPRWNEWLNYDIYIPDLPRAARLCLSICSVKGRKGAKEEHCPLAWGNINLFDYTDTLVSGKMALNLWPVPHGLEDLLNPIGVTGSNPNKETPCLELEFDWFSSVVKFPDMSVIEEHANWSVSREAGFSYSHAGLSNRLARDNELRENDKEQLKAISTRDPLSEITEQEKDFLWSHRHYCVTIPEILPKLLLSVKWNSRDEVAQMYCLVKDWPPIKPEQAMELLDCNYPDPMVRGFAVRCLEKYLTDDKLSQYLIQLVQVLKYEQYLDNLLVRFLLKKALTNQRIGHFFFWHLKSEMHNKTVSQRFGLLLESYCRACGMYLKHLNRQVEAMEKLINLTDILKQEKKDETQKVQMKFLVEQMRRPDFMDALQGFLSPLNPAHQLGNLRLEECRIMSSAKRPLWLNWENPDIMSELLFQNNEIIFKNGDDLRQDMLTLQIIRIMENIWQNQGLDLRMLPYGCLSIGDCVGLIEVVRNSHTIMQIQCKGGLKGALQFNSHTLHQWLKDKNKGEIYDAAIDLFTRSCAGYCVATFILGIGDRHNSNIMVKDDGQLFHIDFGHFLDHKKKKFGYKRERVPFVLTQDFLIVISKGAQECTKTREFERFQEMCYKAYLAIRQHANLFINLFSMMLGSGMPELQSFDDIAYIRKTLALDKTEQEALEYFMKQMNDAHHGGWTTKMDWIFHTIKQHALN
- ASSAY NOTES: PI3KA_Act fluorescence polarization kinase assay (Ki)
- Assay type: biochemical
- ASSAY CONTEXT: 1 mM ATP
Lab note: compare PI3KA_Act Ki with 0.2 nM, writing criterion met if less and criterion not met if equal or more.

Example results:
CC(C)[C@@H](N)C(=O)N1CC[C@@H](N2CCc3c(-c4cnc(N)nc4)nc(N4CCOCC4)nc32)C1.Cl ... criterion not met
CC(C)(C)OC(=O)N1CC[C@@](C)(N2CCc3c(-c4cnc(N)nc4)nc(N4CCOCC4)nc32)C1 ... criterion met
CN1CC[C@@H]1C(=O)N1CC[C@](C)(N2CCc3c(-c4cnc(N)nc4)nc(N4CCOCC4)nc32)C1 ... criterion met

Input line: Determine whether this compound shows PI3KA_Act Ki lower than 0.2 nM (ties excluded): "C[C@H]1COCCN1c1nc(-c2cnc(N)nc2)c2c(n1)N([C@]1(C)CCNC1)CC2.Cl"
Output line: criterion not met

Input line: For this compound, is PI3KA_Act Ki lower than 0.2 nM? "Cl.Nc1ncc(-c2nc(N3CCOCC3)nc3c2CCN3[C@H]2CNC[C@H]2F)cn1"
Output line: criterion not met
